Molecular target: DLL3 (Homo sapiens, UniProt Q9NYJ7)
Sequence (Q9NYJ7 27-618): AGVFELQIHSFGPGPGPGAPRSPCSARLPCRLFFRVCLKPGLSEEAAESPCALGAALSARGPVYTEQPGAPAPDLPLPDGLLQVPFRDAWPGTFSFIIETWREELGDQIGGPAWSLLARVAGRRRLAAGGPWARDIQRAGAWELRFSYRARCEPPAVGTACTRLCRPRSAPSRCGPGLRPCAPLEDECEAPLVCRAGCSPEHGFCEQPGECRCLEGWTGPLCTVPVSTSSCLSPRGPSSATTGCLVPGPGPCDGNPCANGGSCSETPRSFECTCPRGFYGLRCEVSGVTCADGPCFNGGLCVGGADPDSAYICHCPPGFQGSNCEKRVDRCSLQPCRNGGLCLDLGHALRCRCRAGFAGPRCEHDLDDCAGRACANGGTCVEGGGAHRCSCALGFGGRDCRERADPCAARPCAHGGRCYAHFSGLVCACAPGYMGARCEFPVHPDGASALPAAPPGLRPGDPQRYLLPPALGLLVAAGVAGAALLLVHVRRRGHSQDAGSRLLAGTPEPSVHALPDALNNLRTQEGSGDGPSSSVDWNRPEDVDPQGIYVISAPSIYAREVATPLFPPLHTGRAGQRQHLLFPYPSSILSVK
Experiment: SPR KD, biotinylated human DLL3 on streptavidin chip (Table 8)
Parameters: biotin (biotinylated)
Details: biotinylated human DLL3 on streptavidin sensor chip, 25° C., 1:1 binding model; read-out: SPR KD
Where a SMILES comes first, the peptide text is derived from it. Bridges are numbered along the chain shown (N, C = ends). [ ]: non-standard residue; d: D form. The star is where a group is joined. DOTA = O=C(O)CN1CCN(CC(=O)O)CCN(CC(=O)*)CCN(CC(=O)O)CC1; Trp(1-Me) = Cn1cc(C[C@H](N)C(=O)O)c2ccccc21; 2Nal = N[C@@H](Cc1ccc2ccccc2c1)C(=O)O; NMeH = CN[C@@H](Cc1c[nH]cn1)C(=O)O; NMeD = CN[C@@H](CC(=O)O)C(=O)O; Chg = N[C@H](C(=O)O)C1CCCCC1; Nle = CCCC[C@H](N)C(=O)O

- MOLECULE: "CC(=O)N[C@@H](Cc1c[nH]c2ccccc12)C(=O)N[C@H](C(=O)N[C@H](C(=O)N[C@H]1CSSC[C@@H](C(=O)N[C@@H](Cc2c[nH]c3ccccc23)C(=O)N2CCC[C@H]2C(N)=O)NC(=O)[C@H](CC(=O)O)NC(=O)[C@H](CCCCNC(=O)CN2CCN(CC(=O)O)CCN(CC(=O)O)CCN(CC(=O)O)CC2)NC(=O)[C@H](Cc2ccc3ccccc3c2)NC(=O)[C@H](CC(N)=O)NC(=O)[C@H](CC(N)=O)NC1=O)C1CCCCC1)[C@@H](C)O [compound 318] (Ac-WT[Chg]CNN[2Nal]K(DOTA)DCWP-NH2; disulfide 4-10)"
  Kd: "< 1 nM"
- MOLECULE: "CCCC[C@H](NC(=O)[C@@H](NC(=O)[C@H](Cc1c[nH]c2ccccc12)NC(C)=O)[C@@H](C)O)C(=O)N[C@H]1CSSC[C@@H](C(=O)N[C@@H](Cc2c[nH]c3ccccc23)C(=O)N2CCC[C@H]2C(N)=O)NC(=O)[C@H](CC(=O)O)NC(=O)[C@H](Cc2cnc[nH]2)NC(=O)[C@H](Cc2c[nH]c3ccccc23)NC(=O)[C@H](CC(N)=O)NC(=O)[C@H](CC(N)=O)NC1=O [compound 339] (Ac-WT[Nle]CNNWHDCWP-NH2; disulfide 4-10)"
  Kd: "1 to 10 nM"
- MOLECULE: "CC[C@H](C)[C@H](NC(=O)[C@@H](NC(=O)[C@H](Cc1c[nH]c2ccccc12)NC(C)=O)[C@@H](C)O)C(=O)N[C@H]1CSSC[C@@H](C(=O)N[C@@H](Cc2c[nH]c3ccccc23)C(=O)N2CCC[C@H]2C(N)=O)NC(=O)[C@H](CC(=O)O)NC(=O)[C@H](Cc2cnc[nH]2)N(C)C(=O)[C@H](Cc2c[nH]c3ccccc23)NC(=O)[C@H](CC(N)=O)NC(=O)[C@H](CC(N)=O)NC1=O [compound 387] (Ac-WTICNNW[NMeH]DCWP-NH2; disulfide 4-10)"
  Kd: "10 to 100 nM"
- MOLECULE: "CC[C@H](C)[C@H](NC(=O)[C@@H](NC(=O)[C@H](Cc1c[nH]c2ccccc12)NC(C)=O)[C@@H](C)O)C(=O)N[C@H]1CSSC[C@@H](C(=O)N[C@@H](Cc2c[nH]c3ccccc23)C(=O)N2CCC[C@H]2C(N)=O)NC(=O)[C@H](CC(=O)O)N(C)C(=O)[C@H](Cc2cnc[nH]2)NC(=O)[C@H](Cc2c[nH]c3ccccc23)NC(=O)[C@H](CC(N)=O)NC(=O)[C@H](CC(N)=O)NC1=O [compound 388] (Ac-WTICNNWH[NMeD]CWP-NH2; disulfide 4-10)"
  Kd: "100 to 300 nM"
- MOLECULE: "CC[C@H](C)[C@H](NC(=O)[C@@H](NC(=O)[C@H](Cc1c[nH]c2ccccc12)NC(=O)[C@H](CCSC)NC(C)=O)[C@@H](C)O)C(=O)N[C@H]1CSSC[C@@H](C(=O)N[C@@H](Cc2cn(C)c3ccccc23)C(=O)N2CCC[C@H]2C(N)=O)NC(=O)[C@H](CC(=O)O)NC(=O)[C@H](Cc2c[nH]cn2)NC(=O)[C@H](Cc2c[nH]c3ccccc23)NC(=O)[C@H](CC(N)=O)NC(=O)[C@H](CC(N)=O)NC1=O [compound 43] (Ac-MWTICNNWHDC[Trp(1-Me)]P-NH2; disulfide 5-11)"
  Kd: "10 to 100 nM"
- MOLECULE: "CC(=O)N[C@@H](Cc1c[nH]c2ccccc12)C(=O)N[C@H](C(=O)N[C@H](C(=O)N[C@H]1CSSC[C@@H](C(=O)N[C@@H](Cc2c[nH]c3ccccc23)C(=O)N2CCC[C@H]2C(N)=O)NC(=O)[C@H](CC(=O)O)NC(=O)[C@H](CCCCNC(=O)CN2CCN(CC(=O)O)CCN(CC(=O)O)CCN(CC(=O)O)CC2)NC(=O)[C@H](Cc2ccc3ccccc3c2)NC(=O)[C@H](CC(N)=O)NC(=O)[C@H](CN2CCOCC2)NC1=O)C(C)(C)C)[C@@H](C)O (single isomer, unassigned)"
  Kd: "1 to 10 nM"
- MOLECULE: "CC(=O)N[C@@H](Cc1c[nH]c2ccccc12)C(=O)N[C@H](C(=O)N[C@@H](CC(C)(C)C)C(=O)N[C@H]1CSSC[C@@H](C(=O)N[C@@H](Cc2c[nH]c3ccccc23)C(=O)N2CCC[C@H]2C(N)=O)NC(=O)[C@H](CC(=O)O)NC(=O)[C@H](CCCCNC(=O)CN2CCN(CC(=O)O)CCN(CC(=O)O)CCN(CC(=O)O)CC2)NC(=O)[C@H](Cc2ccc3ccccc3c2)NC(=O)[C@H](CC(N)=O)NC(=O)C(CN2CCOCC2)NC1=O)[C@@H](C)O (single isomer, unassigned) [compound 305]"
  Kd: "< 1 nM"
- MOLECULE: "CC[C@H](C)[C@H](NC(=O)[C@@H](NC(=O)[C@H](Cc1cn(C)c2ccccc12)NC(=O)[C@H](CCSC)NC(C)=O)[C@@H](C)O)C(=O)N[C@H]1CSSC[C@@H](C(=O)N[C@@H](Cc2c[nH]c3ccccc23)C(=O)N2CCC[C@H]2C(N)=O)NC(=O)[C@H](CC(=O)O)NC(=O)[C@H](Cc2cnc[nH]2)NC(=O)[C@H](Cc2c[nH]c3ccccc23)NC(=O)[C@H](CC(N)=O)NC(=O)[C@H](CC(N)=O)NC1=O [compound 41] (Ac-M[Trp(1-Me)]TICNNWHDCWP-NH2; disulfide 5-11)"
  Kd: "10 to 100 nM"

// provenance: patent US20250049970A1
